Cited source for all entries: patent US20240051975A1

- Tested on: cell death induced by the NAMPT inhibitor FK866
- test: Protection against cell death induced by the NAMPT inhibitor FK866 (Celltiter-Glo, cellular ATP)
- Type: cell-based
- condition: AUC of dose-response curve (0.1-10 μM) relative to AUC of NAT; 10 nM FK866, 72 hours, cell viability by ATP
parameter-measured: Relative cytoprotective activity
Give bare numbers.

{"columns": ["molecule-smiles", "tested-target", "reported-measurement"],
 "data": [
  ["CCc1ccc(OCC(=O)Nc2ccc(O)cc2)c(C(C)(C)C)c1", "cell death induced by the NAMPT inhibitor FK866", 0.8554],
  ["COC(=O)c1ccc(C(C)(C)C)c(OCC(=O)Nc2ccc(O)cc2)c1", "cell death induced by the NAMPT inhibitor FK866", 0.7359],
  ["CC(C)(C)c1ccccc1OCC(=O)Nc1ccc(O)cc1Cl", "cell death induced by the NAMPT inhibitor FK866", 0.06922],
  ["CC(C)(C)c1cccc(C(C)(C)C)c1OCC(=O)Nc1ccc(O)cc1", "cell death induced by the NAMPT inhibitor FK866", 0.04793],
  ["Cc1ccc(C(C)(C)C)c(OCC(=O)Nc2ccc(O)cc2)c1", "cell death induced by the NAMPT inhibitor FK866", 0.6623],
  ["CC(C)(C)c1ccccc1OCC(=O)Nc1ccc(O)cc1F", "cell death induced by the NAMPT inhibitor FK866", 0.1859]
]}

Now consider the entry below.
Enquiry: Requested field: Relative cytoprotective activity. Item: CC(C)(C)c1ccc(C(=O)O)cc1OCC(=O)Nc1ccc(O)cc1
Return: 0.2131
